B1: TPR t1 (parent)
chain: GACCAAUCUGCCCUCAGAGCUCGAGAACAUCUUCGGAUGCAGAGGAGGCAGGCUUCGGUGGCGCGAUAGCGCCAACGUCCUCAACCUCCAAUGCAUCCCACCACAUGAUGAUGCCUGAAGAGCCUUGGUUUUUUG

Variants of: B1
experimental.protocol: polymerase ribozyme fitness, log enrichment relative to wild type (log ratio); higher = more active; in vitro selection for triplet polymerase activity
Reported polymerase ribozyme fitness (log ratio) values for the following variants.
Enter a number only.

# example entries with known answers
macromolecule_sequence="GACCACUCUGGCCUCAGAGCUCGAGAACAUCUUCGGAUGUAGAGGAGGCAGGCUUCGGUGGCGCGAUAGCGCCAACGUCCUCAACCUCCAAUGCAUCCCACCACAUGAUGAUGCCUGAAGAGUCUUGGUUUUUUG [A6C C11G C40U C123U]" recorded_value=0.00495
macromolecule_sequence="GACCAAUCUGCCCUCAGAGCUCGAGAACAUCUUCGGAUGCAGUGGAGGAAGGCUUCGGUGGCGCGAUAGCGCCAACGUCCUCAACCUCCAAUGCAUCCCACCACAUGAUGAUGCCUGAAGAGCCUUGGUUUUUUG [A43U C49A]" recorded_value=-1.86
macromolecule_sequence="GACCAAUCUGCCCUCAGCGCUCGAGAACAUCUUCGGAUGCAGGGGACGCAGGCCUCGGUGGCGCGAUAGCGCCAACGUCCUCAACCUCCAAUGCAUCCCACCACAUGAUGAUGUCUGAAGAGCCUAGGUUUUUUG [A18C A43G G47C U54C C114U U126A]" recorded_value=-5.87
macromolecule_sequence="GACCAAUCUGCCCUCAGAGCUCGAGAACAUCUUCGGAUGCAGAGGAGGUGGGCUUCGGUGGCGCGAUAGCGCCAACGUCCUCAACCUCCAAUGCAUCCCACCACAUGAUGAUGCCUGAAGAGCCUUGGUUUUUUG [C49U A50G]" recorded_value=-1.68
macromolecule_sequence="GACCAAUCUGCCCUCAGAGAUCGAGAACAUCUUCGGAUGCAGAGGAGGCAGGCUUCGGUGGCGCGAUAGCGCCAACGUCCUCAACCUCCAAUUCAUCCCACCACAUGAUGAGGCCUGAAGAGCCUUGGUUUUUUG [C20A G93U U112G]" recorded_value=-4.35

Q: Find the recorded polymerase ribozyme fitness (log ratio) belonging to GACCAAUCUGCCCUCAGAGCUCGAGAACAUCUUCGGAUGCAGAGGAGUCAGGCUUCGUUUGCGCGAUAGCGCCAACGUCCUGAACCUCCAAUGCAUCCCACCACAUGAUGAUGCCUGAAGAGCCUUGGUUUUUUG [G48U G58U G60U C82G] and report it.
Result: 0.276

Q: Then this variant: GACCAAUCCGCCCUCAGAGCUCGAGAACAUCUUCGGAUACCGAGGAGGCAGGCUUCGGUGGCGCGAUAGCGGCAACGUCCUCACCAUCCAAUGCAUCCAACCACAUGAUGAUGCCUGAAGUGCCUUGGUUUUUUG [U9C G39A A41C C72G A84C C86A C99A A121U]
Result: -6.53
